# IC50 annotations
# system: KCNT1 (KNa1.1, Slack) (Homo sapiens, UniProt Q5JUK3)
# measurement protocol: KCNT1-WT-Basal Patch Clamp Assay
# conditions used: tetracycline inducible cell line (HEK-TREX); SyncroPatch 384PE automated patch clamp, perforated patch mode, room temperature, step from -80 mV to 0 mV
measurement name: IC50

• Cc1cccc(C(=O)N[C@@H](C)c2nc(-c3ccnc(C4CC4)c3)no2)c1 [Compound I-81] = ≤ 1000 nM
• CC(NC(=O)c1cn2ccccc2n1)c1nc(-c2cccc(F)c2)no1 (centres unmarked) [Compound I-50] = ≥ 20000 nM
• C[C@H](NC(=O)C1CCCC1)c1nc(-c2ccnc(C3CC3)c2)no1 [Compound I-105] = ≤ 1000 nM
• Cc1nc(C)c(C(=O)N[C@@H](C)c2nc(-c3cccc(F)c3)no2)s1 [Compound I-39] = 1000 to 20000 nM
• CCOc1cc(-c2noc([C@H](C)NC(=O)C3CCCC3)n2)ccn1 [Compound I-45] = ≤ 1000 nM
• C[C@H](NC(=O)C1CC(F)(F)C1)c1nc(-c2ccnc(C(F)(F)F)c2)no1 [Compound I-2] = 1000 to 20000 nM
• CC[C@H](NC(=O)C1CCCCC1)c1nc(-c2ccnc(C(F)(F)F)c2)no1 [Compound I-20] = ≤ 1000 nM
• Cc1ncc(C(=O)NC(C)c2nc(-c3cccc(F)c3)no2)c(C)n1 (centres unmarked) [Compound I-48] = ≥ 20000 nM
• CC(C)Oc1cc(-c2noc([C@H](C)NC(=O)c3ccccc3)n2)ccn1 [Compound I-43] = ≤ 1000 nM
• C[C@H](NC(=O)c1nc(C(F)(F)F)cs1)c1nc(-c2ccnc(C(F)(F)F)c2)no1 [Compound I-5] = ≤ 1000 nM
• COc1ccc(C(=O)N[C@@H](C)c2nc(-c3ccnc(C4CC4)c3)no2)cc1 [Compound I-61] = ≤ 1000 nM
• C[C@H](NC(=O)C1(C)CCCCC1)c1nc(-c2ccnc(C(F)(F)F)c2)no1 [Compound I-71] = ≤ 1000 nM
• CC(C)Oc1cc(-c2noc([C@H](C)NC(=O)C3CCCC3)n2)ccn1 [Compound I-46] = ≤ 1000 nM
• CC[C@H](NC(=O)Cc1ccccc1)c1nc(-c2ccnc(C(F)(F)F)c2)no1 [Compound I-15] = ≤ 1000 nM
• C[C@H](NC(=O)c1cccc(F)c1)c1nc(-c2ccnc(C3CC3)c2)no1 [Compound I-89] = ≤ 1000 nM
• C[C@H](NC(=O)c1cccc(OC(F)(F)F)c1)c1nc(-c2ccnc(C3CC3)c2)no1 [Compound I-103] = ≤ 1000 nM
• C[C@H](NC(=O)C12CC(C)(C1)C2)c1nc(-c2ccnc(C(F)(F)F)c2)no1 [Compound I-72] = 1000 to 20000 nM

====

# system: KCNT1 (KNa1.1, Slack) (Homo sapiens)
# measurement protocol: KCNT1-WT-Basal Patch Clamp Assay
# conditions used: tetracycline inducible cell line (HEK-TREX); SyncroPatch 384PE automated patch clamp, perforated patch mode, room temperature, step from -80 mV to 0 mV
measurement name: IC50

• C[C@H](NC(=O)c1ccc(Cl)cc1Cl)c1nc(-c2ccnc(C3CC3)c2)no1 [Compound I-94] = ≤ 1 µM
• C[C@H](NC(=O)c1ccc(Br)s1)c1nc(-c2ccnc(C(F)(F)F)c2)no1 [Compound I-18] = ≤ 1 µM
• C[C@H](NC(=O)c1ccc(Br)s1)c1nc(-c2ccnc(C3CC3)c2)no1 [Compound I-57] = ≤ 1 µM
• C[C@H](NC(=O)c1ccccc1Cl)c1nc(-c2ccnc(C3CC3)c2)no1 [Compound I-80] = ≤ 1 µM
• C[C@H](NC(=O)CN(C)C)c1nc(-c2ccnc(C(F)(F)F)c2)no1 [III-1] = ≥ 20 µM
• C[C@H](NC(=O)[C@@H]1CCC(=O)N1)c1nc(-c2ccnc(C(F)(F)F)c2)no1 [Compound I-54] = ≥ 20 µM
• C[C@H](NC(=O)c1ccccc1)c1nc(-c2ccnc(C(F)(F)F)c2)no1 [Compound I-8] = ≤ 1 µM
• C[C@H](NC(=O)C1(C#N)CC1)c1nc(-c2ccnc(C(F)(F)F)c2)no1 [Compound I-32] = ≥ 20 µM
• C[C@H](NC(=O)[C@H]1CCCC(=O)N1)c1nc(-c2ccnc(C(F)(F)F)c2)no1 [Compound I-34] = ≥ 20 µM
• CC(NC(=O)c1cn2c(n1)CCCC2)c1nc(-c2cccc(F)c2)no1 (centres unmarked) [Compound I-52] = ≥ 20 µM
• C[C@H](NC(=O)CC(F)(F)F)c1nc(-c2ccnc(C(F)(F)F)c2)no1 [III-2] = 1 to 20 µM
• C[C@H](NC(=O)[C@@H](C)c1ccccc1)c1nc(-c2ccnc(C(F)(F)F)c2)no1 [Compound I-16] = ≤ 1 µM
• CCn1nc(C)c(C(=O)N[C@@H](C)c2nc(-c3cccc(F)c3)no2)n1 [Compound I-40] = 1 to 20 µM
• C[C@H](NC(=O)c1cccc(C(=O)N(C)C)c1)c1nc(-c2ccnc(C3CC3)c2)no1 [Compound I-90] = 1 to 20 µM
• C[C@H](NC(=O)c1csc(C(F)(F)F)n1)c1nc(-c2ccnc(C(F)(F)F)c2)no1 [Compound I-10] = ≤ 1 µM
• C[C@H](NC(=O)c1ccnc(C(F)(F)F)c1)c1nc(-c2ccnc(C3CC3)c2)no1 [Compound I-96] = ≤ 1 µM
• CC(C)Oc1cc(-c2noc([C@H](C)NC(=O)N3CCOc4ccccc43)n2)ccn1 [II-4] = ≤ 1 µM

====

# system: KCNT1 (KNa1.1, Slack) (Homo sapiens, UniProt Q5JUK3)
# measurement protocol: KCNT1-WT-Basal Patch Clamp Assay
# conditions used: tetracycline inducible cell line (HEK-TREX); SyncroPatch 384PE automated patch clamp, perforated patch mode, room temperature, step from -80 mV to 0 mV
# IC50 annotations
measurement name: IC50

- C[C@H](NC(=O)c1ccnc(C2CC2)c1)c1nc(-c2ccnc(C3CC3)c2)no1: ≤ 1 µM
- CC(C)Oc1cc(-c2noc([C@H](C)NC(=O)N3CCCc4ccccc43)n2)ccn1: ≤ 1 µM
- Cc1nc(C(F)(F)F)ccc1C(=O)N[C@@H](C)c1nc(-c2ccnc(C3CC3)c2)no1: ≤ 1 µM

====

# IC50 annotations
# system: KCNT1 (KNa1.1, Slack) (Homo sapiens)
# measurement protocol: KCNT1-WT-Basal Patch Clamp Assay
# conditions used: tetracycline inducible cell line (HEK-TREX); SyncroPatch 384PE automated patch clamp, perforated patch mode, room temperature, step from -80 mV to 0 mV
# Method: KCNT1-WT-Basal—Patch Clamp Assay Inhibition of KCNT1 (KNa1.1, Slack) was evaluated using a tetracycline inducible cell line (HEK-TREX). Currents were recorded using the SyncroPatch 384PE automated, patch clamp system. […] Current were recorded in perforated patch mode (10 μM escin) from a population of cells. […] Currents were recorded at room temperature. […] Mean current was measured during the step to 0 mV. […]
measurement name: IC50

- CC(=O)N1CCCCC1C(=O)N[C@@H](C)c1nc(-c2ccnc(C(F)(F)F)c2)no1 (mixture of isomers): ≥ 20 µM
- C[C@H](NC(=O)Cc1ccccc1)c1nc(-c2ccnc(C(F)(F)F)c2)no1: 1 to 20 µM
- CC1CC(C(=O)N[C@@H](C)c2nc(-c3ccnc(C(F)(F)F)c3)no2)C1 (mixture of isomers): ≤ 1 µM
- C[C@H](NC(=O)c1ccc(S(C)(=O)=O)s1)c1nc(-c2ccnc(C3CC3)c2)no1: ≤ 1 µM
- Cc1c(C(=O)NC(C)c2nc(-c3cccc(F)c3)no2)nc2ccccn12 (stereo not shown): ≥ 20 µM
- C[C@H](NC(=O)c1c[nH]c(C(F)(F)F)n1)c1nc(-c2ccnc(C(F)(F)F)c2)no1: ≥ 20 µM
- C[C@H](NC(=O)c1ccns1)c1nc(-c2ccnc(C(F)(F)F)c2)no1: 1 to 20 µM

====

# system: KCNT1 (KNa1.1, Slack) (Homo sapiens, UniProt Q5JUK3)
# Sequence (Q5JUK3 1-1230): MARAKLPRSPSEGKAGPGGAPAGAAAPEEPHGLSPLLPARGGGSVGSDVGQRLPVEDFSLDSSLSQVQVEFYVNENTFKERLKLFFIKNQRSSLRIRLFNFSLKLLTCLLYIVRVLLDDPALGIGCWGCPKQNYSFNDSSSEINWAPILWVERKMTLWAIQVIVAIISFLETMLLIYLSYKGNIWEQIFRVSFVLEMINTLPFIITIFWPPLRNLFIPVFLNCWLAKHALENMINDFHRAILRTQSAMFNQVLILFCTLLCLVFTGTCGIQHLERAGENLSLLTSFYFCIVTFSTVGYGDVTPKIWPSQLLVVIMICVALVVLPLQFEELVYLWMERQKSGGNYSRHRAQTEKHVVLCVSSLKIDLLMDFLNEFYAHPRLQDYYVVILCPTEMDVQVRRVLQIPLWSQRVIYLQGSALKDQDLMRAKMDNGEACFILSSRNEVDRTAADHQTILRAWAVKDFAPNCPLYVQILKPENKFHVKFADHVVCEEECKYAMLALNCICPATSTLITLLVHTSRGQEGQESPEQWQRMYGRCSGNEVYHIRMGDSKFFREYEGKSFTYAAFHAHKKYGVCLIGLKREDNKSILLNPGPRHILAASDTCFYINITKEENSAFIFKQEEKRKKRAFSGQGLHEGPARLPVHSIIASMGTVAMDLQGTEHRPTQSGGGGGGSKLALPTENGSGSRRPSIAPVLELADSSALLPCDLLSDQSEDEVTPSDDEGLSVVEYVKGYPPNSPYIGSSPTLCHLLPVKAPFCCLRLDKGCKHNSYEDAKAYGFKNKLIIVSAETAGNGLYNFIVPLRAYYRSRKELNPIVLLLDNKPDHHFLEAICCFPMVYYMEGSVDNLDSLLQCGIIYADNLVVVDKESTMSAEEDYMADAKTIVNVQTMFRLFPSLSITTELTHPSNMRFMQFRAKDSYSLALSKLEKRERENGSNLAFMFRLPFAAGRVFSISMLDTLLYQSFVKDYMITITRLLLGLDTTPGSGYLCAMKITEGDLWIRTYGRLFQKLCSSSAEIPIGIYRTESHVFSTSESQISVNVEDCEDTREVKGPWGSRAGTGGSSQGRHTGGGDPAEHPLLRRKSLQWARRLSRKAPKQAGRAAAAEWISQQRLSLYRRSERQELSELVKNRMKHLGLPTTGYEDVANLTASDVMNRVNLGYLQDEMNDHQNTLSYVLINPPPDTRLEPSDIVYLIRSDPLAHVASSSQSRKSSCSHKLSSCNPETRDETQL
# measurement protocol: KCNT1-WT-Basal Patch Clamp Assay
# conditions used: tetracycline inducible cell line (HEK-TREX); SyncroPatch 384PE automated patch clamp, perforated patch mode, room temperature, step from -80 mV to 0 mV
pIC50: −log10 of the molar value.
measurement name: pIC50

* C[C@H](NC(=O)C12CCC(CC1)CC2)c1nc(-c2ccnc(C(F)(F)F)c2)no1 | ≥ 6.00
* C[C@H](NC(=O)c1cc2ccc(C(F)(F)F)cc2s1)c1nc(-c2ccnc(C(F)(F)F)c2)no1 | ≥ 6.00
* C[C@H](NC(=O)c1ccno1)c1nc(-c2ccnc(C(F)(F)F)c2)no1 | ≤ 4.70
* Cc1nc(C(F)(F)F)ccc1C(=O)NC(C)c1nc(-c2cccc(F)c2)no1 (centres unmarked) | 4.70 to 6.00
* COc1ccccc1C(=O)N[C@@H](C)c1nc(-c2ccnc(C3CC3)c2)no1 | ≥ 6.00
* C[C@H](NC(=O)C1CCC(C)(C)CC1)c1nc(-c2ccnc(C(F)(F)F)c2)no1 | ≥ 6.00
* CC(C)Oc1cc(-c2noc([C@H](C)NC(=O)N(C)C(C)(C)C)n2)ccn1 | ≥ 6.00
* Cc1nc(C)c(C(=O)N[C@H](C)c2nc(-c3cccc(F)c3)no2)s1 | 4.70 to 6.00
